Provide the reported pIC50 of each item.
- assay_target: glutathione S-transferase (GST)-fused full-length human Syk protein (Homo sapiens, UniProt P43405)
- Construct: (GST)-fused full-length human Syk protein; GST (glutathione S-transferase); purchased Carna Biosciences
- assay_name: Syk enzyme assay
- Assay type: biochemical
- measurement_setup: Syk enzyme assay, Test Example 1; read-out: IC50 of Syk-inhibitory activity
pIC50: −log10 of the molar value.

INPUT: GET /values?readout=pIC50&item= "NC(=O)c1cc(F)c(N[C@@H]2CCCC[C@@H]2N)nc1Nc1ccc2cnn(C3CC3)c2c1"
OUTPUT: > 8.00

INPUT: pIC50 lookup needed for "COCCn1nc(C)c2cc(Nc3nc(N[C@H](CC4CC4)[C@H](C)N)c(F)cc3C(N)=O)ccc21" , thanks.
OUTPUT: 7.00 to 7.30

INPUT: Which pIC50 is reported for this molecule? CCC(N)CNc1nc(Nc2ccc3ncccc3c2)c(C(N)=O)cc1F (stereo not shown) [Example 014-001]
OUTPUT: > 8.00

INPUT: Entry under review: NC(=O)c1cc(F)c(NC2CCCCC2N)nc1Nc1ccnc(-c2ccc3c(c2)NC(=O)CO3)c1 (stereo not shown) . Reported pIC50?
OUTPUT: > 8.00
